Test: pH of peptide solutions in DMSO/D5W, with succinate, and with Hiltonol
Type: physicochemical
endpoint: pH of peptides in DMSO/D5W

substance="H-PPYPYSSPSLVLPTEPHTPKSLQQPGLPS-OH [CS6715]" readout_value=4.11
substance="H-GTKALQLHSIAGRWPRMEPWVVESMSLGVP-OH [CS7415]" readout_value=3.91
substance="H-VQLSIQDVIRRARLSTVPTAQRVALRSGWI-OH [CS7413]" readout_value=3.9
substance="H-PLMQTELHQLVPEADPEEMA-OH [CS7430]" readout_value=3.95
substance="H-AHRQGEKQHLLPVFSRLALRLPWRHSVQL-OH [CS6941]" readout_value=3.92
substance="H-AESAQRQGPNGGGEQSANEF-OH [CS7416]" readout_value=3.91
substance="H-ALSLTPGLRIGPSGLFLVFLAESAVDKGHPNRS-OH [CS7410]" readout_value=3.99
substance="H-GTYLQGTASALSQSQERPPSVNRVPPSSPSSQE-OH [CS6725]" readout_value=3.95
